Biological target: AgSla1-D1-D2
Experiment: SPOT peptide array binding signal intensity (averaged, normalized) (arbitrary units (background-subtracted, floor 0; scale differs between SH3 domains)); higher = stronger binding of the SH3 domain to the peptide
QUANTITY: SPOT peptide array binding signal intensity

[[record]]
binder = "YRRKSIPFAPHQITA"
observed_measurement = 39

[[record]]
binder = "LPMNIQPDLPPRKIM"
observed_measurement = "≤ 0"

[[record]]
binder = "PSPSSSPPPIPKTAN"
observed_measurement = 2.5

[[record]]
binder = "LKRITSPPLPPRADS"
observed_measurement = "≤ 0"

[[record]]
binder = "RSVKRPRRAPRPVVS"
observed_measurement = 15

[[record]]
binder = "AVPPPPPPPPLPESL"
observed_measurement = "≤ 0"

[[record]]
binder = "AHFQPQRTAPKPPIS"
observed_measurement = "≤ 0"


Just for reference, the supplement of paper PMC4466140 is where these values come from.
